abundance fitness values for the variants below.
B1: MEF2-activating motif and SAP domain-containing transcriptional regulator, residues 170 to 204; numbered along this chain, Q6ZN01 (parent)
chain: LKLEELTVSELRQQLRLRGLPVSGTKSMLLERMRG

# Variants of: B1
# method_description: abundance fitness (aPCA) (normalised: wild type 0, dead -1); higher = more abundant; growth selection in yeast, the domain comes from the species named
# test_parameters: Homo sapiens

mutant | abundance fitness
E4F | -0.679
K26T | -0.42
L3K | 0.017
L15V | -0.37
R34L | -0.068
T7M | -0.598
K2S | -0.201
L1I | 0.108
T25F | -0.608
P21A | -0.184
K2R | -0.042
R32W | -0.554
R34V | -0.244
R34N | 0.21
V8G | -0.429
V8M | -0.206
S27L | -0.281
K2L | -0.444
K26A | -0.057
E31N | -0.238
S9L | -0.275
G19I | -0.417
T7K | -0.184
E5Y | -0.424
L29F | -0.589
R16Q | -0.207
S27P | -0.19
E4H | -0.046
S27F | -1.15
Q14M | 0.023
T7C | -0.594
R12A | -0.361
M33T | -0.525
R32L | -0.485
K26L | -0.159
E4N | -0.017
G19W | -0.863
S27Y | -0.725
S9N | 0.182
L3S | -0.22
L6Y | -0.384
L15G | -0.391
L29I | -0.749
L3G | -0.304
Q13L | -0.174
S23V | -0.16

Hello, the source for this data is the Human Domainome abundance scans (Beltran et al. 2025), in case you need it.
